Test system: RXF 393 renal
Experiment: NCI-60 one-dose screen, 48 h (100 = growth as untreated, 0 = no growth, -100 = all killed)
Settings: 10 µM unless noted
The panel holds about 83,000 compounds, 20% with a hit somewhere; the sample as a whole holds those more often.
Measured growth, listed per entry.
Write it as a number; the unit % goes unstated.

compound | value unit | growth
CCOc1ccc2c(c1)c(C)cc(C)[n+]2CC | % | 96.3
CCOP(=O)(OCC)/C(=C\N1C(=O)CC(=O)NC1=S)C(=O)OC | % | 103
Oc1cc(O)c2c(c1)O[C@H](c1ccc(O)c(O)c1)[C@@H](O)C2 | % | 113

*Q* Return growth for the following compound: `Cc1ccc(NCN2C(=O)c3ccccc3C2=O)c(C)n1`
*A* 114

*Q* Return growth for the following compound: `CCOC(=O)c1ccc(C(C)(C)C)cc1`
*A* 118

*Q* Return growth for the following compound: CC1CCC(C(C)(C)[N+](C)(C)C)CC1 (stereo not drawn)
*A* 111

*Q* Return growth for the following compound: CC1(c2ccccc2)CO1 (stereo not drawn)
*A* 120

*Q* Return growth for the following compound: `C/C(O)=C(/C=N\C(=S)Nc1ccc(S(=O)(=O)Nc2nccs2)cc1)C(=O)Nc1ccccc1C`
*A* 97.7

*Q* Return growth for the following compound: `COc1ccc2c(c1)Nc1ccccc1S2`
*A* 115
